Target: zPIP5Kα (zebrafish PIP5Kα) (Danio rerio, UniProt Q503I3)
Construct: gene pip5k1aa; zebrafish PIP5Kα with a C-terminal His-tag
Sequence (Q503I3 1-559): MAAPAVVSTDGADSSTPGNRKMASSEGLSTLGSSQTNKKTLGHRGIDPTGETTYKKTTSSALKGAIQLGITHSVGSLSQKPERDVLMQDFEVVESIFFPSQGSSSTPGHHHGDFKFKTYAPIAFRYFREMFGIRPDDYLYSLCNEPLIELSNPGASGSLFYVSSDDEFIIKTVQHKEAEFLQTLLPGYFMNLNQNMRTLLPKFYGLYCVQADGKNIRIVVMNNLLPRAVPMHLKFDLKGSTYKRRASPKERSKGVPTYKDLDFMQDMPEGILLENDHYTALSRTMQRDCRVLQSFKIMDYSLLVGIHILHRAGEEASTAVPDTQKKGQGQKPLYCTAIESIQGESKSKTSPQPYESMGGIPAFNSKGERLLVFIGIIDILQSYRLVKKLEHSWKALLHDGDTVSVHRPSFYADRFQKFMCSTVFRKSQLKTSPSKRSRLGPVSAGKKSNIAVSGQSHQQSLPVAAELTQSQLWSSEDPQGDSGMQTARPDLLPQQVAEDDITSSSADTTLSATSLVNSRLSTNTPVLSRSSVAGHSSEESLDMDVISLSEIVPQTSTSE
Test: […]-ATP lipid kinase assay with TLC, diC16-PI4P substrate; ATP and PI4P competition
Assay type: biochemical
pIC50: −log10 of the molar value.
readoutLabel: pIC50

INSERT INTO results (structurestring, obsvalue) VALUES
  ('CCCCCCCCCCCCCCCC(=O)NCCOP(=O)(O)OC[C@H]1O[C@@H](OC)[C@H](OP(=O)(O)O)[C@H]2OC(C)(C)O[C@H]21', '~4.82');
